Entry source: the supplement of paper PMC8728848

target system: Neu5Ac(a2-8)Neu5Ac(a2-3)Gal(b1-3)GalNAc(b1-4)[Neu5Ac(a2-8)Neu5Ac(a2-3)]Gal(b1-4)Glc
assay details: glycan array binding signal (z-score within array); higher = stronger binding
assay setup: glycan notation: IUPAC condensed, linker removed
This excerpt belongs to a sample that is enriched for the strongest signals.

{"columns": ["binder", "glycan array binding signal (z-score)"],
 "data": [
  ["CBP21 (Serratia marcescens), O83009 (protein) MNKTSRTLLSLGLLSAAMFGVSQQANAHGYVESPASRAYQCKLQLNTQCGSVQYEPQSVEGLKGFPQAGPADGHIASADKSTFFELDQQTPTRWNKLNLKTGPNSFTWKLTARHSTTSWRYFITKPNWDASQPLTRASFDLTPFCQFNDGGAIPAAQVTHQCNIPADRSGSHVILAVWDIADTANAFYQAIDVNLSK", 0.155],
  ["Epa8 (Candida glabrata) (protein) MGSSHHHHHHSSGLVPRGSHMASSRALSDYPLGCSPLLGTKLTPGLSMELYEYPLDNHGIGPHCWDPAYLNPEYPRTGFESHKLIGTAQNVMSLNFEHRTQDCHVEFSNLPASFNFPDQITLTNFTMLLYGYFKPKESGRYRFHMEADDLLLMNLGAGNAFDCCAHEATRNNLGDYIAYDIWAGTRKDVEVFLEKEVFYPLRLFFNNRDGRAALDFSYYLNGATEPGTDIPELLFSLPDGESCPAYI", 0.256],
  ["Gz-CVNH (Gibberella zeae) (protein) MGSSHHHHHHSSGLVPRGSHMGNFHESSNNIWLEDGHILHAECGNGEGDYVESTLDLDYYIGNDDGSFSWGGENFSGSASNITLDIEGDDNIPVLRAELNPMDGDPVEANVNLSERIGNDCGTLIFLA", -0.156],
  ["BIp1-His (Cryptococcus neoformans) (protein) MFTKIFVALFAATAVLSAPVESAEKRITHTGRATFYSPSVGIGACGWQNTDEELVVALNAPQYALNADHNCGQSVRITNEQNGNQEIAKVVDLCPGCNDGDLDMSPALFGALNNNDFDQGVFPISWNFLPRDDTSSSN", 1.77],
  ["SJCP3842 (Schistosoma japonicum) (protein) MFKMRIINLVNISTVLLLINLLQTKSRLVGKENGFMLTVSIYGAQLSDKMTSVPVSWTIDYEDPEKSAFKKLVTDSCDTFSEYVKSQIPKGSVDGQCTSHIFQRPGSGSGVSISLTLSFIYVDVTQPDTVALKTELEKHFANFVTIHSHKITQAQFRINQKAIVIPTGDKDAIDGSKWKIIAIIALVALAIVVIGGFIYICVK", 3.14],
  ["Epa22 (Candida glabrata) (protein) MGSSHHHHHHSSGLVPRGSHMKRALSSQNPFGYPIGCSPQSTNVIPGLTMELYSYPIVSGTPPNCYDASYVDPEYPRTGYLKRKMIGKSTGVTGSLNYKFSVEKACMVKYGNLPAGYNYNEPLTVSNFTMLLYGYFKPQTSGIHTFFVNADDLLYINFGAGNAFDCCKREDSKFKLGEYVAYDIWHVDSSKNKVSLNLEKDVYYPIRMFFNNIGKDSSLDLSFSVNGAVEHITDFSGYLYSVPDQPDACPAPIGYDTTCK", -0.003],
  ["FimD (Bordetella pertussis) (protein) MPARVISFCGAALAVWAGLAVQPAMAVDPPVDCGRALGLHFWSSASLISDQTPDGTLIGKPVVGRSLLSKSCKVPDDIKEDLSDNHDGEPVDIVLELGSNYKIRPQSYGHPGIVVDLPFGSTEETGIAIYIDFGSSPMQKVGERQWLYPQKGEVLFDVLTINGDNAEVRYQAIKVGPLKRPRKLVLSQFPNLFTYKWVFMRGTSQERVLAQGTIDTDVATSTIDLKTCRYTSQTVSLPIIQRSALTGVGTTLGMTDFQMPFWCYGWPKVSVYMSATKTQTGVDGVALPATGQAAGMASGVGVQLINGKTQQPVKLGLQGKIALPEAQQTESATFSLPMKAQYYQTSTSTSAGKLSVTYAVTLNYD", 1.36]
]}
